study target: Relaxin receptor 1 (Homo sapiens) (UniProt Q9HBX9)
Sequence (Q9HBX9 whole entry, looked up): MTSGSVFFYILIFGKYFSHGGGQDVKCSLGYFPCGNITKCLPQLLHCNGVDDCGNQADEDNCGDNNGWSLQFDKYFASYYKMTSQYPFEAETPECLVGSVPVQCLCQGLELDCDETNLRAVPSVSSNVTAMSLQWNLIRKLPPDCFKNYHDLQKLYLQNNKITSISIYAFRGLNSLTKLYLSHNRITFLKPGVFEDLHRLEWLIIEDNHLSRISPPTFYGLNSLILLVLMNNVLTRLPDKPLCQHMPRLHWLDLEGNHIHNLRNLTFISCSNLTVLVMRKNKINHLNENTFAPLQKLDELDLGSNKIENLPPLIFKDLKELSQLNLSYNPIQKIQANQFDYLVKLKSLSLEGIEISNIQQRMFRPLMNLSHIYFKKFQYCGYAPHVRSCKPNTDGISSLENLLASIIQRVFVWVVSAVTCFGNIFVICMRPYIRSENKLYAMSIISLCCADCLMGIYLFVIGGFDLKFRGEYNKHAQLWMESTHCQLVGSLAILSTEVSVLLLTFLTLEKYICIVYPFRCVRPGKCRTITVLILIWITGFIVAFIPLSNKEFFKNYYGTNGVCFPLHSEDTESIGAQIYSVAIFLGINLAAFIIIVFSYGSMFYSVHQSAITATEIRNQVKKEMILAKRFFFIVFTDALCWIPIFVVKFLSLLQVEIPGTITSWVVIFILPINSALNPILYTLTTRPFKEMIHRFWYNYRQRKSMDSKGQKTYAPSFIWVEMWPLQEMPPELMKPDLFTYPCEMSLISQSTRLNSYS
assay comment: qHTS Assay for Agonists of the Relaxin Receptor RXFP1: RXFP1 SAR
conditions used: HEK293T-RXFP1 cAMP TR-FRET, 30 min
Results filed as inconclusive are left out. The source made the active and inactive calls. Calls follow the shape of the dose curve; as a rule, active = well fitted curve in the direction sought with a large enough effect; inconclusive = small, poorly fitted or top-dose-only effect, or another doubt; inactive = no such curve, though single readings can be large or run the other way.
metric: Potency

Q: Find the recorded Potency belonging to O=C(Nc1cccc(C(F)(F)F)c1)c1ccccc1NC(=O)C1CCCC1 and report it.
A: 2.36 µM (active)

Q: Can you share its Potency? I mean this molecule: CC(C)Oc1ccccc1C(=O)Nc1ccccc1C(=O)Nc1cccc(C(F)(F)F)c1
A: 0.471 µM (active)

Q: I am curious: what Potency value has been reported for O=C(Nc1cccc(C(F)(F)F)c1)c1ccccc1NC(=O)c1ccccc1OC(F)(F)F ?
A: 1.18 µM (active)

Q: Return reported Potency; argument: O=C(NCc1ccco1)c1ccccc1NC(=O)c1ccccc1NC(=O)C1CCCCC1
A: 9.4 µM (active)

Q: Bench note: what Potency did O=C(Nc1cccc([N+](=O)[O-])c1)c1ccccc1NC(=O)C1CCCCC1 show?
A: 5.93 µM (active)

* * *

I'd appreciate it if you could supply Potency values for the items below.
study target: Relaxin receptor 1 (Homo sapiens) (UniProt Q9HBX9)
assay comment: qHTS Assay for Agonists of the Relaxin Receptor RXFP1: RXFP1 SAR
conditions used: HEK293T-RXFP1 cAMP TR-FRET, 30 min
Results filed as inconclusive are left out. Activity calls are given as the source filed them. The call rests on the fitted dose curve; in most records, active means well fitted curve in the direction sought with a large enough effect; inconclusive means small, poorly fitted or top-dose-only effect, or another doubt; inactive means no such curve, though single readings can be large or run the other way.

Q: Field request: Potency | item: COc1cccc(OC)c1C(=O)Nc1ccccc1C(=O)Nc1cccc(C(F)(F)F)c1
A: 7470 nM (active)

Q: Given the entry CCOc1ccccc1C(=O)Nc1ncccc1C(=O)Nc1cccc(S(=O)(=O)C(F)(F)F)c1 , report its measured Potency.
A: 1670 nM (active)

Q: Would you kindly share the measured Potency for CCOc1ccccc1C(=O)Nc1cnccc1C(=O)Nc1cccc(S(=O)(=O)C(F)(F)F)c1 ?
A: 2970 nM (active)

Q: Requested field: Potency. Item: Cc1ccccc1C(=O)Nc1ccccc1C(=O)Nc1cccc(C(F)(F)F)c1
A: 4200 nM (active)

Q: Which Potency reading was recorded for the compound COc1ccccc1C(=O)Nc1ccccc1C(=O)Nc1cccc(SC(F)(F)F)c1 ?
A: 297 nM (active)

Q: # query: Potency of entry O=C(Nc1cccc(SC(F)(F)F)c1)c1ccccc1NC(=O)C1CCCCC1
A: 1880 nM (active)

Q: Return reported Potency; argument: O=C(Nc1cccc(C(F)(F)F)c1)c1ccccc1NC(=O)C1CCCCCC1
A: 2110 nM (active)

Q: Value lookup for Potency; key = COCCOc1ccccc1C(=O)Nc1ccccc1C(=O)Nc1cccc(C(F)(F)F)c1
A: 747 nM (active)

Q: # Potency lookup, item O=C(Nc1cccc(Br)c1)c1ccccc1NC(=O)C1CCCCC1
A: 2650 nM (active)

Q: Which Potency is reported for this compound? CCOc1ccccc1C(=O)NCCC(=O)Nc1cccc(S(=O)(=O)C(F)(F)F)c1
A: 4710 nM (active)

Hello, the source for this data is PubChem BioAssay AID602256, in case you need it.
